targetUnderTest: T1, THP-1 lysate derived human trimeric ARG2 (human, UniProt P78540 23-354, limits assumed)
T1 sequence (looked up): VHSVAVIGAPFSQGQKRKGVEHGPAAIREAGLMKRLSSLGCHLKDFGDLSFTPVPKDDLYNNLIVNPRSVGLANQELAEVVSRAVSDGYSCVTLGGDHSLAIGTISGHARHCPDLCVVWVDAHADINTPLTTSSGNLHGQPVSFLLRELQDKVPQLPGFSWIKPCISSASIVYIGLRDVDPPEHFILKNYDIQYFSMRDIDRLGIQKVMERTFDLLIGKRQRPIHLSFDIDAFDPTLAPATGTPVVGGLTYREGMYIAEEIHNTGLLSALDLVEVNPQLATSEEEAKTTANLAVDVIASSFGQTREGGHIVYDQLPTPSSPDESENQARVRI
assay: cell-based or functional assay
readoutLabel: IC50 (M) THP-1 ARG2 (no plasma)
Entry rule: numbers only, all in M.

Below, each entry is followed by its recorded IC50 (M) THP-1 ARG2 (no plasma) result.
C0021061 recombinant human IgG1 (antibody, V domains shown) VH: EVQLLESGGGLVQPGGSLRLSCAASGFTFSSYAMSWVRQAPGKGLEWVSAKPTDAGSTYYADSVKGRFTISRDNSKNTLYLQMNSLRAEDTAVYYCARLRADLGLYMDLWGRGTLVTVSS VL: QSVLTQPPSVSAAPGQKVTISCSGSSSNIGNHYVSWYQQLPGTAPKLLIYNTVYPKSGIPDRFSGSKSGTSATLGITGLQTGDEADYYCGTWDSSLSALVFGGGTKLTVL :: 6.79e-09
C0021133 recombinant human IgG1 (antibody, V domains shown) VH: EVQLLESGGGLVQPGGSLRLSCAASGFTFRYDHHVWVRQAPGKGLEWVSAISGSGGSTYYADSVKGRFTISRDNSKNTLYLQMNSLRAEDTAVYYCARLRADLGLYMDLWGRGTLVTVSS VL: QSVLTQPPSVSAAPGQKVTVSCSGSSSNIGNHYVSWYQQLPGTAPKLLIYDTTVLSSGIPDRFSGSKSGTSATLGITGLQTGDEADYYCGTWDELTSNLVFGGGTKLTVL :: 6.68e-09

Then this binder:
# binder C0021065 recombinant human IgG1 (antibody, V domains shown) VH: EVQLLESGGGLVQPGGSLRLSCAASGFTFSSYAMSWVRQAPGKGPEWVSAISGFSPYYADSVKGRFTISRDNSRNTLYLQMNSLRAEDTAVYYCARLRADLGLYMDLWGRGTLVTVSS VL: QSVLTQPPSVSAAPGQKVTISCSGSSSNIGNHYVSWYQQLPGTAPKLLIYDTDHMASGIPDRFSGSKSGTSATLGITGLQTGDEADYYCGTWDSSLSALVFGGGTKLTVL ; its IC50 (M) THP-1 ARG2 (no plasma) = 5.99e-09
